# System: SK-MEL-2 melanoma
# ASSAY PROCEDURE: NCI tumour cell line growth inhibition, 48 h
Below is a list of entries, each paired with its recorded TGI value.

Example results:
For reference, reported TGI for `O=S(=O)(O)c1ccc2c(N=Nc3ccccc3)c(O)c(S(=O)(=O)O)cc2c1` stands at > 100 µM

For reference, reported TGI for `O=C1c2n[nH]nc2C(=O)c2n[nH]nc21` stands at > 100 µM

For reference, reported TGI for `CN(C)Cc1cc(C(C)(C)C)cc(CNC2CCCCC2)c1O` stands at > 100 µM

For reference, reported TGI for C=C1C(=O)O[C@@H]2C1C[C@@H](O)/C(C)=C/C/C=C(\C)CCC[C@H](C)[C@H]2OC(C)=O (stereo partly specified) stands at 67.9 µM

For reference, reported TGI for `NCCCN(CCCN)CCCNCc1c2ccccc2c(CNCCCN(CCCN)CCCN)c2ccccc12` stands at 54.9 µM

// below: TGI requested for another compound
For reference, reported TGI for `CC(C)=CCC/C(=C\CC/C(=C\CCc1ccoc1)C(=O)O)C(=O)O` stands at > 100 µM

###

# System: MDA-MB-231 breast
# ASSAY PROCEDURE: NCI tumour cell line growth inhibition, 48 h
Below is a list of entries, each paired with its recorded TGI value.

For reference, reported TGI for N#Cc1ccccc1NC(=O)/C(=N\NC(=O)c1ccncc1)C(c1cnc2ccc([N+](=O)[O-])cc2n1)[N+](=O)[O-] (stereo not given) stands at > 100 µM

For reference, reported TGI for `O=S(=O)(O)c1ccc2c(N=Nc3ccccc3)c(O)c(S(=O)(=O)O)cc2c1` stands at > 100 µM

For reference, reported TGI for `Cc1cccc(C)c1NC(=O)/C(Cl)=C(/Cl)C(=O)O` stands at 41.7 µM

For reference, reported TGI for `CN(C)Cc1cc(C(C)(C)C)cc(CNC2CCCCC2)c1O` stands at > 100 µM

For reference, reported TGI for O=C(O)CS(=O)c1ccc2c3c(cccc13)C(=O)c1ccccc1-2 (stereo not given) stands at > 100 µM

For reference, reported TGI for `O=C1C=C(N2CCCC2)C(=O)c2c(O)ccc(O)c21` stands at > 10 µM

Further cases:
For reference, reported TGI for `O=c1[nH]c(=S)c2cc3c(=S)[nH]c(=O)n(CCC(c4ccccc4)(c4ccccc4)c4ccccc4)c3nc2n1CCC(c1ccccc1)(c1ccccc1)c1ccccc1` stands at > 100 µM

For reference, reported TGI for `Nc1nc2cc(CNc3ccc(C(=O)O)cc3)ccc2nc1-c1ccccc1` stands at > 100 µM

For reference, reported TGI for Cc1ccccc1C(=O)C#Cc1cn(C2CC(O)C(CO)O2)c(=O)[nH]c1=O (stereo not given) stands at > 100 µM

For reference, reported TGI for `COc1ccc2nc(-c3ccccc3)cc(Nc3ccc(C(C)=O)cc3)c2c1` stands at 2.13 µM

For reference, reported TGI for `O=C1C(Cl)=C(Oc2ccc([N+](=O)[O-])cc2)C(=O)c2c(O)ccc(O)c21` stands at 66 µM

For reference, reported TGI for `S=c1nc(Oc2ccc(Cl)c(Cl)c2)[nH]c(=S)[nH]1` stands at > 100 µM

For reference, reported TGI for `COC(=O)c1ccc(CCC2=CC(=O)C(Br)=CC2=O)cc1` stands at 38.7 µM

###

# Test system: SK-MEL-2 melanoma
# ASSAY PROCEDURE: NCI tumour cell line growth inhibition, 48 h
MEASURED QUANTITY: TGI

Example results:
Measured TGI (SK-MEL-2 melanoma), entry `O=C1C=C(N2CCCC2)C(=O)c2c(O)ccc(O)c21` : > 10 µM

Measured TGI (SK-MEL-2 melanoma), entry CCOC(=O)CN=C1Nc2ccccc2C(=O)N2CSCC12 (stereo not drawn) : > 100 µM

Measured TGI (SK-MEL-2 melanoma), entry N#CC1=C(N)NC(=S)NC12Nc1ccccc1O2 (stereo not drawn) : 53.4 µM

Further cases:
Measured TGI (SK-MEL-2 melanoma), entry CC1(CCc2ccccc2)CC1(Br)Br (stereo not drawn) : 36.1 µM

Measured TGI (SK-MEL-2 melanoma), entry `CCn1nc(-c2ccccc2)c2c1N(C)c1ccccc1-n1c(-c3ccccc3)nnc1-2` : 32.8 µM

Measured TGI (SK-MEL-2 melanoma), entry `COC(=O)/C=C(C)/C=C/c1cc(C(C)=O)c(C)o1` : > 100 µM

Measured TGI (SK-MEL-2 melanoma), entry Cc1ccc(S(=O)(=O)NC(=O)NC(Cc2ccccc2)C(=O)O)cc1 (stereo not drawn) : > 100 µM

Measured TGI (SK-MEL-2 melanoma), entry `CC(=O)[CH-]C(=O)c1ccccc1.CC(=O)[CH-]C(=O)c1ccccc1.CC(=O)[CH-]C(=O)c1ccccc1.[Tl+3]` : > 100 µM

###

# Tested on: SK-OV-3 ovarian
# ASSAY PROCEDURE: NCI tumour cell line growth inhibition, 48 h
Below is a list of entries, each paired with its recorded TGI value.

Measured TGI (SK-OV-3 ovarian), entry `O=c1[nH]nc(-c2ccc([N+](=O)[O-])cc2)n1/N=C/c1ccc([N+](=O)[O-])cc1` : > 100 µM

Measured TGI (SK-OV-3 ovarian), entry N#CCc1ccc(C(C#N)/C(CCCC(=O)Nc2cccc([N+](=O)[O-])c2)=N\NC(=O)NN)cc1 (stereo not drawn) : > 100 µM

// below: TGI requested for another compound
Measured TGI (SK-OV-3 ovarian), entry CC1(C)CC(=O)C2=C(C1)NC(SCC(=O)O)=C(C#N)C2c1ccc(Br)cc1 (stereo not drawn) : > 100 µM

###

# Test system: HS 578T breast
# ASSAY PROCEDURE: NCI tumour cell line growth inhibition, 48 h; in the data active = GI50 below about 0.43 µM; inactive = the rest
Respond with a class label; see active, inactive

Problem: Field: outcome | Entry: COC(=O)NC/C=C\c1nc(CC/C=C\C(=O)OC2CC3CC(=O)O[C@H](/C=C/CC(C)C)C[C@H]4CCC(C)C(C[C@H](OC)CC(C2)O3)O4)co1 (stereo partly drawn)
Solution: inactive

Problem: Field: outcome | Entry: `O=[N+]([O-])c1ccc(-c2nc(N(CCO)CCO)c3ccccc3n2)o1`
Solution: active

Query molecule follows.
Problem: Field: outcome | Entry: `COc1ccc2nc(-c3ccccc3)cc(Nc3ccc(C(C)=O)cc3)c2c1`
Solution: inactive

###

# Test system: MDA-MB-231 breast
# ASSAY PROCEDURE: NCI tumour cell line growth inhibition, 48 h
MEASURED QUANTITY: TGI

For reference, reported TGI for CCN(CC)c1ccc2c(c1)Oc1ccc(N(C(C)=O)c3ccccc3)cc1C21OC(=O)c2ccccc21 (configuration not stated) stands at > 100 µM

Further cases:
For reference, reported TGI for COc1ccc(C2c3cc4c(cc3OC(NNC(N)=O)C2C)OCO4)cc1 (configuration not stated) stands at > 100 µM

For reference, reported TGI for COc1ccc2c(c1)C1Oc3ccccc3CC1(O)CO2 (configuration not stated) stands at > 100 µM

For reference, reported TGI for `CC(/C=N/N(C)C1=NCCCCN1)=N/N(C)C1=NCCCCN1` stands at > 100 µM

For reference, reported TGI for CCOC(=O)CN=C1Nc2ccccc2C(=O)N2CSCC12 (configuration not stated) stands at > 100 µM

For reference, reported TGI for `Cc1ccccc1CN1CC2=C(CCN(Cc3ccccc3)C2=O)N2CCN=C12` stands at > 80 µM

###

# Tested on: T-47D breast
# ASSAY PROCEDURE: NCI tumour cell line growth inhibition, 48 h
MEASURED QUANTITY: GI50

Example results:
For reference, reported GI50 for `CC1(C)OC[C@@H]([C@@]2(CO[Si](C)(C)C(C)(C)C)CC=CC(=O)O2)O1` stands at 24.9 µM

For reference, reported GI50 for CC(=O)C1CC2(c3ccc(C)cc3)C(c3ccc(C)cc3)=C(c3ccc(C)cc3)C1(c1ccc(C)cc1)S2=O (stereo not given) stands at 68 µM

For reference, reported GI50 for `Cc1cc(C)c(O)c(CNCCCCCCNCc2cc(C)cc(C)c2O)c1` stands at 1.5 µM

Further cases:
For reference, reported GI50 for COC(=O)NC/C=C\c1nc(CC/C=C\C(=O)OC2CC3CC(=O)O[C@H](/C=C/CC(C)C)C[C@H]4CCC(C)C(C[C@H](OC)CC(C2)O3)O4)co1 (stereo not given in full) stands at 39.1 µM

For reference, reported GI50 for C=C1C(=O)O[C@@H]2C1C[C@@H](O)/C(C)=C/C/C=C(\C)CCC[C@H](C)[C@H]2OC(C)=O (stereo not given in full) stands at 48.4 µM

###

# Test system: U251 CNS
# ASSAY PROCEDURE: NCI tumour cell line growth inhibition, 48 h
MEASURED QUANTITY: TGI

Example results:
Measured TGI (U251 CNS), entry `O=S(=O)(O)c1ccc2c(N=Nc3ccccc3)c(O)c(S(=O)(=O)O)cc2c1` : > 100 µM

Measured TGI (U251 CNS), entry CC1(C)CC(=O)C2=C(C1)NC(SCC(=O)O)=C(C#N)C2c1ccc(Br)cc1 (stereo not drawn) : > 100 µM

// below: TGI requested for another compound
Measured TGI (U251 CNS), entry COc1ccc2c(c1)C1Oc3ccccc3CC1(O)CO2 (stereo not drawn) : > 100 µM
